Tested on: 217524-143-R1-J4-PDC spheroids with HUVEC/MSC, viability;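 also: spheroids exposed to agents for seven days before reading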
EXPERIMENT: Anticancer human tumor 217524-143-R1-J4-PDC patient-derived pancreatic carcinoma cell line growth inhibition [CLK]; active = viability on the fitted dose curve at most 10% of control; inactive = the rest
EXPERIMENTAL CONDITIONS: second compound 0.316 µM; first compound 0.3 µM
Classes used: active, inactive

COMPOUND	TESTED ON	ASSIGNED LABEL
NC(=O)C(=Cn1cnc(-c2cc(C(F)(F)F)cc(C(F)(F)F)c2)n1)c1cncnc1 + CNC(=O)c1ccc(Nc2nc(OC3CCCC3)c3c(-c4ccc5nc(C)oc5c4)c[nH]c3n2)c(OC)c1	217524-143-R1-J4-PDC spheroids with HUVEC/MSC, viability	inactive
CC(C)CC(NC(=O)C(Cc1ccccc1)NC(=O)c1cnccn1)B(O)O (stereo unspecified) + CNC(=O)c1ccc(Nc2nc(OC3CCCC3)c3c(-c4ccc5nc(C)oc5c4)c[nH]c3n2)c(OC)c1	217524-143-R1-J4-PDC spheroids with HUVEC/MSC, viability	active
NC(=O)C(=Cn1cnc(-c2cc(C(F)(F)F)cc(C(F)(F)F)c2)n1)c1cncnc1 + CN1CCN(c2cc(C(=O)Nc3cc4cc(-c5cnn(C)c5)ccc4cn3)ccn2)CC1	217524-143-R1-J4-PDC spheroids with HUVEC/MSC, viability	active
C=CC(=O)Nc1cc(Nc2nccc(-c3cn(C)c4ccccc34)n2)c(OC)cc1N(C)CCN(C)C + CNC(=O)c1ccc(Nc2nc(OC3CCCC3)c3c(-c4ccc5nc(C)oc5c4)c[nH]c3n2)c(OC)c1	217524-143-R1-J4-PDC spheroids with HUVEC/MSC, viability	inactive
C=CC(=O)Nc1cc(Nc2nccc(-c3cn(C)c4ccccc34)n2)c(OC)cc1N(C)CCN(C)C + CN1CCN(c2cc(C(=O)Nc3cc4cc(-c5cnn(C)c5)ccc4cn3)ccn2)CC1	217524-143-R1-J4-PDC spheroids with HUVEC/MSC, viability	inactive
CC(C)CC(NC(=O)C(Cc1ccccc1)NC(=O)c1cnccn1)B(O)O (stereo unspecified) + CN1CCN(c2cc(C(=O)Nc3cc4cc(-c5cnn(C)c5)ccc4cn3)ccn2)CC1	217524-143-R1-J4-PDC spheroids with HUVEC/MSC, viability	active
